The reported measurements were obtained from paper PMC8151276.

Target: FZD4 (Homo sapiens)
Construct: purchased Promega (in-house HiBiT-GPCR construct library, NanoBRET)
Sequence (Q9ULV1 37-537): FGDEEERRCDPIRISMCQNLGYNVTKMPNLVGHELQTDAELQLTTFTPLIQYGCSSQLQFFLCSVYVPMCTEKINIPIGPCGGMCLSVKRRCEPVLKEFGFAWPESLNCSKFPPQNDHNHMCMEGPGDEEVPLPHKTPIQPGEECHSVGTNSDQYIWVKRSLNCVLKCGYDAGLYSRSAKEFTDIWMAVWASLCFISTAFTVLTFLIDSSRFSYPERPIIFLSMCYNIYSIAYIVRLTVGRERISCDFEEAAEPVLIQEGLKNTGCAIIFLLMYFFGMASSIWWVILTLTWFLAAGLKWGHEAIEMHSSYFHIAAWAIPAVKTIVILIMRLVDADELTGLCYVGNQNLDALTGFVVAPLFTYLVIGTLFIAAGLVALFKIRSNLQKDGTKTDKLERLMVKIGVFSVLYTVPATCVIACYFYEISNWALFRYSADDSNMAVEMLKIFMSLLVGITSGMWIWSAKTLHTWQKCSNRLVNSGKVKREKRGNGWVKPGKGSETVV
Test: NanoBRET screen HiBiT-FZD4 in HEK293
Format: binding
Conditions: FZD4; tracer 0.1μM
Measured NanoBRET Fold Response, listed per entry for reference.
measuredEndpoint: NanoBRET Fold Response

# molecule, targetDesc, experimentalValue
data = [
    ("O=C(CCOCCOCCOCCOCCNC(=O)CCc1ccc2n1[B-](F)(F)[N+]1=C(c3ccc[nH]3)C=CC1=C2)NCCCN1CCN(C2=Nc3ccccc3Oc3ccc(Cl)cc32)CC1 [Loxapine-a-2-NB590]", "FZD4 (Homo sapiens)", 0.98),
    ("COc1ccccc1N1CCN(CCCCN2C(=O)c3ccc(CNC(=O)CCOCCNC(=O)c4ccc(CNC(=O)CCc5ccc6n5[B-](F)(F)[N+]5=C(c7ccc[nH]7)C=CC5=C6)cc4)cc3C2=O)CC1 [NAN-190-3-NB590]", "FZD4 (Homo sapiens)", 1.03),
    ("O=C(CCc1ccc2n1[B-](F)(F)[N+]1=C(c3ccc[nH]3)C=CC1=C2)NCc1ccc(C(=O)NCCOCCC(=O)N[C@@H]2CC[C@@]3(O)[C@H]4Cc5ccc(O)c6c5[C@@]3(CCN4CC3CC3)[C@H]2O6)cc1 [Naltrexone-3-NB590]", "FZD4 (Homo sapiens)", 0.89),
    ("CC(C)N(CC[C@H](c1ccccc1)c1cc(CCNC(=O)c2ccc(CNC(=O)CCc3ccc4n3[B-](F)(F)[N+]3=C(c5ccc[nH]5)C=CC3=C4)cc2)ccc1O)C(C)C [Tolterodine-BZ-NB590]", "FZD4 (Homo sapiens)", 0.93),
    ("Cc1nc2n(c(=O)c1CCN1CCC(c3noc4cc(F)ccc34)CC1)CCCC2OC(=O)NCCOCCOCCOCCOCCNC(=O)CCc1ccc2n1[B-](F)(F)[N+]1=C(c3ccc[nH]3)C=CC1=C2 (stereo not drawn) [Risperidone-2-NB590]", "FZD4 (Homo sapiens)", 1.14),
    ("COc1ccccc1N1CCN(CCCCN2C(=O)c3ccc(CNC(=O)CCOCCOCCOCCOCCNC(=O)CCc4ccc5n4[B-](F)(F)[N+]4=C(c6ccc[nH]6)C=CC4=C5)cc3C2=O)CC1 [NAN-190-2-NB590]", "FZD4 (Homo sapiens)", 1.03),
]

----------
Molecular target: GRM4 (Homo sapiens)
Construct: purchased Promega (in-house HiBiT-GPCR construct library, NanoBRET)
Sequence (Q14833 33-912): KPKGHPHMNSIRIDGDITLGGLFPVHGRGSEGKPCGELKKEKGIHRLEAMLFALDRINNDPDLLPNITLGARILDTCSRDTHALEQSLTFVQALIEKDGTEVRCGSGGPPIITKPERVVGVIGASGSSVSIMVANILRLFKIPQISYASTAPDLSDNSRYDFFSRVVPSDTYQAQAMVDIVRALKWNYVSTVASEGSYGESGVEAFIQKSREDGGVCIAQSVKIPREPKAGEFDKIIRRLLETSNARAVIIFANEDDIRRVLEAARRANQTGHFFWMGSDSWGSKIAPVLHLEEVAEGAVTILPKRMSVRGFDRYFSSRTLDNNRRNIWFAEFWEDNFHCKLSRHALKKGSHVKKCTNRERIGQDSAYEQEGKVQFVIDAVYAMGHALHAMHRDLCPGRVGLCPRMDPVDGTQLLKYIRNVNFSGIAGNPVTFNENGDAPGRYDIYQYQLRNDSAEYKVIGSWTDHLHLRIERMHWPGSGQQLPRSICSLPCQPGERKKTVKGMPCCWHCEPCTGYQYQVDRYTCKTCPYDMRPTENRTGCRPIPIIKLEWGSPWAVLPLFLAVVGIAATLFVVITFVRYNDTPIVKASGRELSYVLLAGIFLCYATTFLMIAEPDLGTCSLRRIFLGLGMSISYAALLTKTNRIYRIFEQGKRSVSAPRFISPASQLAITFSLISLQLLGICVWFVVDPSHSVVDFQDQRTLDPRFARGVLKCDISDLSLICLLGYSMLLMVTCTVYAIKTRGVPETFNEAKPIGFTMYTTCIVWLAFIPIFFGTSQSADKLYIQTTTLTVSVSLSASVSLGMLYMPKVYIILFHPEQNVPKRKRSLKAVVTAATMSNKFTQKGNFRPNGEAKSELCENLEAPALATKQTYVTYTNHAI
Assay: NanoBRET screen HiBiT-GRM4 in HEK293
Format: binding
Settings: GRM4; tracer 0.1μM
Define the label as y when NanoBRET Fold Response is strictly less than 1 and as n in all remaining cases.

# compound, labelClass
data = [
    ("CN(C)CCC=C1c2ccccc2CCc2ccc(C(=O)NCCNC(=O)CCOCCOCCOCCOCCNC(=O)CCc3ccc4n3[B-](F)(F)[N+]3=C(c5ccc[nH]5)C=CC3=C4)cc21", "y"),
    ("CC(C)N(CC[C@H](c1ccccc1)c1cc(CCNC(=O)CCOCCOCCOCCOCCNC(=O)CCc2ccc3n2[B-](F)(F)[N+]2=C(c4ccc[nH]4)C=CC2=C3)ccc1O)C(C)C", "y"),
    ("CCCn1c(=O)c2[nH]c(-c3ccc(OCC(=O)NCCNC(=O)CCOCCNC(=O)c4ccc(CNC(=O)CCc5ccc6n5[B-](F)(F)[N+]5=C(c7ccc[nH]7)C=CC5=C6)cc4)cc3)nc2n(CCC)c1=O", "n"),
]

----------
Target: CXCR2 (Homo sapiens)
Construct: purchased Promega (in-house HiBiT-GPCR construct library, NanoBRET)
Sequence (P25025 1-360): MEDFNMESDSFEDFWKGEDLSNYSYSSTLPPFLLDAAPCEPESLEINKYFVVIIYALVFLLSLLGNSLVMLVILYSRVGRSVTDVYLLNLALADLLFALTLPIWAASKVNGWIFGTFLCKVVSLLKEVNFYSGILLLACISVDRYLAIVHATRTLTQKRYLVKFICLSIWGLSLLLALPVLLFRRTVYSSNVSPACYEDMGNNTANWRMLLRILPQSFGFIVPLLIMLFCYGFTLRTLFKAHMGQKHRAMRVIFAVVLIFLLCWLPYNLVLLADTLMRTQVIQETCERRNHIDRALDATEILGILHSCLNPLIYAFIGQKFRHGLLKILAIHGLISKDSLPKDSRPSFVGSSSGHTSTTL
Experiment: NanoBRET screen HiBiT-CXCR2 in HEK293
Assay type: binding
Details: CXCR2; tracer 1μM
Procedure: Each tracer candidate was screened across the entire library of HiBiT-GPCR constructs using NanoBRET as the detection modality. As depicted in Figure 4A, the specificity of interactions was evaluated through decrease in BRET due to competitive displacement of a bound tracer by excess parental compound. Each tracer was analyzed for binding to each HiBiT-GPCR fusion in the absence and in the presence of competing parental compound. […]
Define the label as t when NanoBRET Fold Response is strictly less than 1 and as f in all remaining cases.

# compound, labelClass
records = [
    ("O=C(CCc1ccc2n1[B-](F)(F)[N+]1=C(c3ccc[nH]3)C=CC1=C2)NCc1ccc(C(=O)NCCOCCC(=O)N[C@@H]2CC[C@@]3(O)[C@H]4Cc5ccc(O)c6c5[C@@]3(CCN4CC3CC3)[C@H]2O6)cc1 [Naltrexone-3-NB590]", "t"),
    ("CC(C)N(CC[C@H](c1ccccc1)c1cc(CCNC(=O)c2ccc(CNC(=O)CCc3ccc4n3[B-](F)(F)[N+]3=C(c5ccc[nH]5)C=CC3=C4)cc2)ccc1O)C(C)C", "f"),
    ("N#CN=C(NCCCOc1cccc(CN2CCCCC2)c1)NCCNC(=O)CCOCCOCCOCCOCCNC(=O)CCc1ccc2n1[B-](F)(F)[N+]1=C(c3ccc[nH]3)C=CC1=C2", "t"),
    ("Cc1cc2c(s1)Nc1ccccc1N=C2N1CCN(CCCNC(=O)CCOCCOCCOCCOCCNC(=O)CCc2ccc3n2[B-](F)(F)[N+]2=C(c4ccc[nH]4)C=CC2=C3)CC1", "f"),
    ("COc1ccccc1N1CCN(CCCCN2C(=O)c3ccc(CNC(=O)CCOCCOCCOCCOCCNC(=O)CCc4ccc5n4[B-](F)(F)[N+]4=C(c6ccc[nH]6)C=CC4=C5)cc3C2=O)CC1", "t"),
    ("O=C(CCc1ccc2n1[B-](F)(F)[N+]1=C(c3ccc[nH]3)C=CC1=C2)NCCOCCOCCNC(=O)OCCOCCN1CCN(C2=Nc3ccccc3Sc3ccccc32)CC1", "t"),
]

----------
Target: SSTR2 (Homo sapiens, UniProt P30874)
Construct: purchased Promega (in-house HiBiT-GPCR construct library, NanoBRET)
Sequence (P30874 whole entry): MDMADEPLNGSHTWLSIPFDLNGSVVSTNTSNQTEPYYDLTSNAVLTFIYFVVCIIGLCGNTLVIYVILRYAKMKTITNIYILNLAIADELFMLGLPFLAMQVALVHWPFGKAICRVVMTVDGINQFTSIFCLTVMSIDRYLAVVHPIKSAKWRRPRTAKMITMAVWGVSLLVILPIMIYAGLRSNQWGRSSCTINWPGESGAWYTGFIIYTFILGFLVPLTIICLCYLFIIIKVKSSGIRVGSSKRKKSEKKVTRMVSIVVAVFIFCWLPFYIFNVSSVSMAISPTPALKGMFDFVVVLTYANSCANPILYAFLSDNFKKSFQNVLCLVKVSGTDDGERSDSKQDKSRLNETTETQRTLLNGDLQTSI
Test: NanoBRET screen HiBiT-SSTR2 in HEK293
Format: binding
Conditions: SSTR2; tracer 1μM
Define the label as yes when NanoBRET Fold Response is strictly less than 1 and as no in all remaining cases.

# compound, labelClass
data = [
    ("O=C(CCc1ccc2n1[B-](F)(F)[N+]1=C(c3ccc[nH]3)C=CC1=C2)NCc1ccc(C(=O)NCCOCCC(=O)N[C@@H]2CC[C@@]3(O)[C@H]4Cc5ccc(O)c6c5[C@@]3(CCN4CC3CC3)[C@H]2O6)cc1 [Naltrexone-3-NB590]", "yes"),
    ("COc1ccccc1N1CCN(CCCCN2C(=O)c3ccc(CNC(=O)CCOCCOCCOCCOCCNC(=O)CCc4ccc5n4[B-](F)(F)[N+]4=C(c6ccc[nH]6)C=CC4=C5)cc3C2=O)CC1", "no"),
    ("O=C(CCc1ccc2n1[B-](F)(F)[N+]1=C(c3ccc[nH]3)C=CC1=C2)NCCOCCOCCNC(=O)OCCOCCN1CCN(C2=Nc3ccccc3Sc3ccccc32)CC1", "yes"),
    ("O=C(CCOCCOCCOCCOCCNC(=O)CCc1ccc2n1[B-](F)(F)[N+]1=C(c3ccc[nH]3)C=CC1=C2)NCCCN1CCN(C2=Nc3ccccc3Oc3ccc(Cl)cc32)CC1", "no"),
]

----------
Target: F2R (Homo sapiens, UniProt P25116)
Construct: purchased Promega (in-house HiBiT-GPCR construct library, NanoBRET)
Sequence (P25116 22-425): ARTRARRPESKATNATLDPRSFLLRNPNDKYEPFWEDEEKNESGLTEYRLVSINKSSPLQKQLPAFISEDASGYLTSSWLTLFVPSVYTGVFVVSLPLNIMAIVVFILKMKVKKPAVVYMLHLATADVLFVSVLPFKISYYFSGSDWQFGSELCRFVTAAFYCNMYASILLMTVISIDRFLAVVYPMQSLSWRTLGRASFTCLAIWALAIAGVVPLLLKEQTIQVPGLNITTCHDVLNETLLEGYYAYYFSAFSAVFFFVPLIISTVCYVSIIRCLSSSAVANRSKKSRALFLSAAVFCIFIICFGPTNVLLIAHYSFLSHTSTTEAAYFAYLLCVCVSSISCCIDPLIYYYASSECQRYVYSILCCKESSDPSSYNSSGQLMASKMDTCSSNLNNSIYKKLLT
Test: NanoBRET screen HiBiT-F2R in HEK293
Type: binding
Settings: F2R; tracer 1μM

# compound, targetDesc, NanoBRET Fold Response
measured = [
    ("N#CN=C(NCCCOc1cccc(CN2CCCCC2)c1)NCCNC(=O)CCOCCOCCOCCOCCNC(=O)CCc1ccc2n1[B-](F)(F)[N+]1=C(c3ccc[nH]3)C=CC1=C2 [Aminopotentidine-2-NB590]", "F2R (Homo sapiens, UniProt P25116)", 1.00),
    ("Cc1nc2n(c(=O)c1CCN1CCC(c3noc4cc(F)ccc34)CC1)CCCC2OC(=O)NCCOCCOCCOCCOCCNC(=O)CCc1ccc2n1[B-](F)(F)[N+]1=C(c3ccc[nH]3)C=CC1=C2 (stereo not drawn) [Risperidone-2-NB590]", "F2R (Homo sapiens, UniProt P25116)", 0.78),
    ("Cc1cc2c(s1)Nc1ccccc1N=C2N1CCN(CCCNC(=O)CCOCCOCCOCCOCCNC(=O)CCc2ccc3n2[B-](F)(F)[N+]2=C(c4ccc[nH]4)C=CC2=C3)CC1 [Olanzapine-a-2-NB590]", "F2R (Homo sapiens, UniProt P25116)", 0.90),
    ("COc1ccccc1N1CCN(CCCCN2C(=O)c3ccc(CNC(=O)CCOCCNC(=O)c4ccc(CNC(=O)CCc5ccc6n5[B-](F)(F)[N+]5=C(c7ccc[nH]7)C=CC5=C6)cc4)cc3C2=O)CC1 [NAN-190-3-NB590]", "F2R (Homo sapiens, UniProt P25116)", 1.11),
    ("O=C(CCc1ccc2n1[B-](F)(F)[N+]1=C(c3ccc[nH]3)C=CC1=C2)NCc1ccc(C(=O)NCCOCCC(=O)N[C@@H]2CC[C@@]3(O)[C@H]4Cc5ccc(O)c6c5[C@@]3(CCN4CC3CC3)[C@H]2O6)cc1 [Naltrexone-3-NB590]", "F2R (Homo sapiens, UniProt P25116)", 0.99),
    ("O=C(CCc1ccc2n1[B-](F)(F)[N+]1=C(c3ccc[nH]3)C=CC1=C2)NCCOCCOCCNC(=O)OCCOCCN1CCN(C2=Nc3ccccc3Sc3ccccc32)CC1 [Quetiapine-a-2-NB590]", "F2R (Homo sapiens, UniProt P25116)", 1.41),
]
